Values from PubChem BioAssay (NCI)

Test system: NCI/ADR-RES ovarian
Test: NCI-60 one-dose screen, 48 h
Conditions: 10 µM unless noted
About 83,000 compounds went through this panel and 20% of them were active in at least one assay; those are over-represented in the sample as a whole. The source made the active and inactive calls. Rule for the calls: active = growth percent below 10; inactive = the rest.
Classes to choose from: active, inactive

>  <compound>
COc1ccc(-c2ccc(-c3ccc(C(=N)N)nc3)s2)cc1Cl

>  <group-label>
inactive

$$$$
>  <compound>
CN(C)CCCC1(c2ccc(F)cc2)OCc2cc(-c3ccc4cc[nH]c4c3)ccc21 (centres undefined)

>  <group-label>
inactive

$$$$
>  <compound>
COc1cccc(/C=C/C(=O)c2cc3c(N)c(C(=O)Nc4cccc5ccccc45)sc3nc2C)c1

>  <group-label>
active

$$$$

IN: Outcome? COc1ccc(C(=O)/C=C/c2ccc(N3CCCCC3)cc2)cc1OC
OUT: inactive

IN: Outcome? O=C(CCSc1nnc2n(Cc3ccccc3)c(=O)c3c4c(sc3n12)CCCC4)N1CCN(c2ccccc2)CC1
OUT: inactive

IN: Outcome? N#C/C(=C\c1cn(Cc2ccccc2)c2ccccc12)C(=O)Nc1ncc(Cc2ccccc2Cl)s1
OUT: inactive

IN: Outcome? C/C(=N\O)c1ccc(NC(=O)CSc2nnc(-c3cc(-c4ccc(S(C)(=O)=O)cc4)nc4ccccc34)n2-c2ccccc2)cc1
OUT: inactive

IN: Outcome? Cc1nc2sc(C(=O)Nc3cccc(Br)c3C)c(N)c2cc1C(O)c1ccccc1 (centres undefined)
OUT: active

IN: Outcome? COc1ccc(C[n+]2c3ccccc3n3c4ccc(N)cc4ccc32)c(OC)c1OC
OUT: inactive

====

Test system: UACC-62 melanoma
Assay: NCI-60 one-dose screen, 48 h (100 = growth as untreated, 0 = no growth, -100 = all killed)
Conditions: 10 µM unless noted
The panel holds about 83,000 compounds, 20% with a hit somewhere; the sample as a whole holds those more often.
metric: growth (%)
Just the number please, in %, no unit attached.

# example entries with known answers
>  <molecule>
N[C@H]1CCC[C@@H]1NCCCCN1C(=O)c2cccc3cc([N+](=O)[O-])cc(c23)C1=O

>  <metric>
growth

>  <result-value>
72.2

$$$$
>  <molecule>
C=C(c1ccc(OC)c(/C=C/C(=O)c2ccc3c(c2)OCO3)c1)c1cc(OC)c(OC)c(OC)c1

>  <metric>
growth

>  <result-value>
2.65

$$$$
>  <molecule>
CCOC(=O)C#Cc1c(C(=O)OCC)nnn1Cc1ccc(C(F)(F)F)cc1

>  <metric>
growth

>  <result-value>
80

$$$$
>  <molecule>
CCOC(=O)C(=Cc1ccc(-c2ccccc2)cc1)C(=O)OCC

>  <metric>
growth

>  <result-value>
35.4

$$$$
>  <molecule>
Cc1ccccc1Nc1cc(O)c2c(=O)cc(-c3ccccc3)oc2c1

>  <metric>
growth

>  <result-value>
43.4

$$$$
>  <molecule>
COC(=O)c1c2c(c(C)[n+]([O-])c1C)C(=O)C(NCc1ccc(OC)cc1)=CC2=O

>  <metric>
growth

>  <result-value>
-27.9

$$$$
>  <molecule>
O=c1ccc(=O)n(-c2nc(-c3ccc([N+](=O)[O-])cc3)cs2)[nH]1

>  <metric>
growth

>  <result-value>
90.7

$$$$
>  <molecule>
COc1ccc(/C=C/C(=O)c2cc(OC)c(OC)c(OC)c2)cc1OCC(=O)Nc1nc2ccc(OC(F)(F)F)cc2s1

>  <metric>
growth

>  <result-value>
60

$$$$
>  <molecule>
COc1ccc(/C=C/c2c(C(=O)/C=C/c3ccccc3)c(C)nc3ccccc23)cc1

>  <metric>
growth

>  <result-value>
19.1

$$$$
>  <molecule>
C#Cc1cccc(Nc2nc(C)nc3cc(NC(=O)CCl)ccc23)c1

>  <metric>
growth

>  <result-value>
-46.5

$$$$

IN: Look at this molecule and give its reported growth. CCN1C(=O)N(CC)C2C1NC(=S)N2/N=C/c1ccc(OC)cc1 (stereo not given)
OUT: 38.5

IN: Look at this molecule and give its reported growth. CCNC(=O)Oc1ccc(/C(=C(/C)Cc2ccc(OC)cc2)c2ccc(OCCN3CCCCC3)cc2)cc1
OUT: 58.4

IN: Look at this molecule and give its reported growth. CN(C)c1ccc(-c2nc(-c3ccccc3)c(-c3ccccc3)[nH]2)cc1
OUT: 97.7

IN: Look at this molecule and give its reported growth. N#Cc1cccc(C2C3=C(COC3=O)N(CCO)c3cc4c(cc32)OCO4)c1 (stereo not given)
OUT: 43.4

IN: Look at this molecule and give its reported growth. Cc1ccc2nc(-c3ccc(C(=O)NNC(=S)Nc4ccccc4)cc3)[nH]c2c1
OUT: 98.9

IN: Look at this molecule and give its reported growth. CS(=O)(=O)c1ccc(NC(=O)c2ccccc2)nc1
OUT: 95.4

IN: Look at this molecule and give its reported growth. CCNc1nc(O)c(/C=C2\C=Nc3ncccc32)s1
OUT: -16

IN: Look at this molecule and give its reported growth. COc1cc2nc3sc(C(=O)Nc4ccc(C(=O)OC(C)C)cc4)c(C(=O)Nc4ccc(Cl)cc4C)n3c(=O)c2cc1OC
OUT: 67.6

IN: Look at this molecule and give its reported growth. CCc1n(Cc2ccc3ccccc3n2)cc[n+]1Cc1ccc2ccccc2n1
OUT: 12.4

IN: Look at this molecule and give its reported growth. N#C/C(=C\c1ccc(-c2cccc(C(F)(F)F)c2)o1)c1ccccc1
OUT: 71.4

====

System: TK-10 renal
Assay: NCI-60 one-dose screen, 48 h (100 = growth as untreated, 0 = no growth, -100 = all killed)
Conditions: 10 µM unless noted
This is part of a sample that, as a whole, favours compounds with a hit. Of some 83,000 tested, about 20% had one in any assay. Calls of active or inactive are those of the source. The calls were made as follows: active = growth percent below 10; inactive = the rest.
metric: growth

# example entries with known answers
>  <molecule>
C/C(=N\O)[C@@H]1CC[C@]2(CO)CC[C@]3(C)[C@H](CC[C@@H]4[C@@]5(C)CCCNC(C)(C)[C@@H]5CC[C@]43C)[C@@H]12

>  <growth>
109% (inactive)

$$$$
>  <molecule>
COc1ccc(/C=C(/C(=O)n2cnnn2)c2cc(OC)c(OC)c(OC)c2)cc1

>  <growth>
44.9% (inactive)

$$$$
>  <molecule>
CNC1=C([N+](=O)[O-])C(c2ccc(OC)cc2)C(C#N)=C(c2cccs2)O1 (centres undefined)

>  <growth>
124% (inactive)

$$$$

Next, consider the following molecule.
IN: Look at this molecule and give its reported growth. C=CCn1c(SCC(=O)Nc2ccc(/C(C)=N/O)cc2)nnc1-c1cc(-c2ccc(S(N)(=O)=O)cc2)nc2ccccc12
OUT: 121% (inactive)

====

Test system: IGROV1 ovarian
Assay: NCI-60 one-dose screen, 48 h
Details: 10 µM unless noted
The panel holds about 83,000 compounds, 20% with a hit somewhere; the sample as a whole holds those more often. The source made the active and inactive calls. Rule for the calls: active = growth percent below 10; inactive = the rest.
Classes to choose from: 1.0 = active, 0.0 = inactive

>  <substance-smiles>
O=C(Nc1cnc(Nc2ccc(N3CCOCC3)nc2)nc1Oc1ccc(C(F)(F)F)cc1)c1ccncc1

>  <group-label>
0.0

$$$$
>  <substance-smiles>
O=C(CCCCCCN1CC(=O)N2[C@H](c3ccc(Br)cc3)c3[nH]c4ccccc4c3C[C@@H]2C1=O)NO

>  <group-label>
0.0

$$$$
>  <substance-smiles>
C=C1C(=O)O[C@H]2[C@H]1CC/C(COC(=O)CSCSCC(=O)OC/C1=C/CC[C@@]3(C)O[C@H]3[C@H]3OC(=O)C(=C)[C@@H]3CC1)=C\CC[C@@]1(C)O[C@@H]21

>  <group-label>
1.0

$$$$
>  <substance-smiles>
Cc1ccc(/C=C(\C#N)n2nnc3cc(F)c(F)cc32)cc1

>  <group-label>
1.0

$$$$
>  <substance-smiles>
O=C(O)c1cn(C2CC2)c2cc(N3CCN(C(=O)Nc4nc(-c5ccc(Br)cc5)cs4)CC3)c(F)cc2c1=O

>  <group-label>
0.0

$$$$
>  <substance-smiles>
COc1cc(OC)c(C(=O)C(CN(C)C)CN(C)C)cc1OC

>  <group-label>
0.0

$$$$
>  <substance-smiles>
O=C(CCSc1nnc2n(Cc3ccccc3)c(=O)c3c4c(sc3n12)CCCC4)N1CCN(c2ccccc2)CC1

>  <group-label>
0.0

$$$$
>  <substance-smiles>
CN(CCCNC(=O)CCOCCOCCOCCNC(=O)Cc1ccc2ccc3cccc4ccc1c2c34)CCCNc1cc(-c2ccc3ccccc3c2)nc2ccccc12

>  <group-label>
1.0

$$$$

IN: Outcome? C=C(C)[C@@H]1CC[C@]2(C)[C@H](CC=C3[C@@H]4CC(C)(C)CC[C@]4(CO)CC[C@]32C)[C@@]1(C)CCCN
OUT: 1.0

IN: Outcome? C=C(CNCCc1ccc(O)cc1)[C@@H]1CC[C@]2(CO)CC[C@]3(C)[C@H](CC[C@@H]4[C@@]5(C)CCC(=O)C(C)(C)[C@@H]5CC[C@]43C)[C@@H]12
OUT: 0.0

IN: Outcome? CCCCCCCC/C=C\CCCCCCCCOc1ccc(CC(=O)NCC[N+]2(C)CCOCC2)cc1
OUT: 1.0
